The values you see were collected from PubChem BioAssay (NCI).

# Test system: OVCAR-5 ovarian
# test-protocol: NCI-60 one-dose screen, 48 h (100 = growth as untreated, 0 = no growth, -100 = all killed)
# experimental-conditions: 10 µM unless noted
This is part of a sample that, as a whole, favours compounds with a hit. Of some 83,000 tested, about 20% had one in any assay.
growth overview
property-measured: growth (%)

molecule: O=C(/C=C/c1ccc(Br)cc1)c1ccccc1
property-measured: growth
recorded-measurement: 113

molecule: COC(=O)C(C(=O)OC)C(Br)C(Br)C(Br)c1ccccc1 (stereo not given)
property-measured: growth
recorded-measurement: 120

molecule: O=C1Nc2ccccc2/C1=C/c1cn(CC(O)Cn2cc(/C=C3\C(=O)Nc4ccccc43)c3ccccc32)c2ccccc12 (stereo not given)
property-measured: growth
recorded-measurement: -34.2

molecule: COc1cc2ncnc(-n3ncc4cc(NC(=O)Nc5ccc(Cl)c(Cl)c5)ccc43)c2cc1OC
property-measured: growth
recorded-measurement: -33.1

molecule: COc1cc2cn3c4ccc(O)cc4[nH]c(=O)c3c2cc1OC
property-measured: growth
recorded-measurement: 30

molecule: Cc1ncc(C(=O)Nc2ccc(CN3CCN(C)CC3)c(C(F)(F)F)c2)cc1C#Cc1c(N)ncc2ccccc12
property-measured: growth
recorded-measurement: -92.6

molecule: O=C(O)/C(Br)=C/c1c[nH]c2ccc(Br)cc12
property-measured: growth
recorded-measurement: 90.6

molecule: COc1cc(N)c2nccc(C)c2c1OC
property-measured: growth
recorded-measurement: 107

molecule: O=C(Nn1cnc2ccccc21)N1CCCC1
property-measured: growth
recorded-measurement: 95.7

molecule: C[C@@H](c1ccc2c(c1)[nH]c1ccc(Cl)cc12)c1nc2ccc(Cl)cc2[nH]1
property-measured: growth
recorded-measurement: 75.2
